# test target: STING C-terminal region (hSTING-C) (human, UniProt Q86WV6 152-379)
# Sequence (Q86WV6 152-379): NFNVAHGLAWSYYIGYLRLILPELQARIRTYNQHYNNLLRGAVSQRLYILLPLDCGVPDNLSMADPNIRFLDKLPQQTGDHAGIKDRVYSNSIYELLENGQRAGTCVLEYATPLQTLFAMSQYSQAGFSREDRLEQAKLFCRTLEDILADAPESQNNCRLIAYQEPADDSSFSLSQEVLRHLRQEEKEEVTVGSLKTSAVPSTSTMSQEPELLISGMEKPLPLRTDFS
# protocol summary: fluorescence anisotropy
parameter: Kd (µM)
One number for each entry, in µM.

In plain terms, dsDNA 30-mer (dsDNA) DNA 1: TACAGATCTACTAGTGATCTATGACTGATC DNA 2: GATCAGTCATAGATCACTAGTAGATCTGTA has a documented Kd of 247
